# SUBJECT OF TEST: Aspartate--tRNA(Asp/Asn) ligase (Mycobacterium tuberculosis (strain ATCC 25618 / H37Rv)) (UniProt P9WFW3)
# Sequence (whole entry): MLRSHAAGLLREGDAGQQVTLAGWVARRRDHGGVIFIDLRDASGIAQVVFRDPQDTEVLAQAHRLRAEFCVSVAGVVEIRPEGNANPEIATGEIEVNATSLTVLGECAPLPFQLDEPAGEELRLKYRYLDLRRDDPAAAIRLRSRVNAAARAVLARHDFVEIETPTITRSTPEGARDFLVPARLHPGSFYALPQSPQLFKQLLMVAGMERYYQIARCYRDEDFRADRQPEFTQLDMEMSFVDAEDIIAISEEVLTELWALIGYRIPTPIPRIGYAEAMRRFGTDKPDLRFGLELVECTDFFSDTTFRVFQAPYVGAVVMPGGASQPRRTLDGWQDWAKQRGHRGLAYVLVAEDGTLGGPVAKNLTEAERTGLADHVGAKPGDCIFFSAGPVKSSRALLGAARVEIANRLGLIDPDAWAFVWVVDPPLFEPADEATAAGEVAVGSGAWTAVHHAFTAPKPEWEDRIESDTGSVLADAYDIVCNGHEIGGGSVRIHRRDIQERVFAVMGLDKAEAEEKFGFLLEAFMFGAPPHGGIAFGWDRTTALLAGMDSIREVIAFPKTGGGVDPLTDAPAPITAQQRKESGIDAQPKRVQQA
# METHOD: Assay for Asp RNA synthetase-1 from Mycobacterium tuberculosis
# Format: functional
# Set-up: scale not given: in the data most compounds retested in dose-response had high values
# ASSAY CONDITIONS: 30 µM
OBSERVED PROPERTY: Percent Effect
Kindly write the number and append the unit.

Known Percent Effect results, listed for orientation:
Return Percent Effect for the following compound: CC(C)(CNC(=O)NCCOc1cccc(F)c1)C(N)=O
-1.21%

Return Percent Effect for the following compound: CC(NC(=O)N1CCN(c2ccc(Cl)cc2)CC1)C(=O)N1CCSCC1 (centres undefined)
-5.11%

Return Percent Effect for the following compound: Cc1ccc(-c2cc(N)c(=O)n(CC(=O)NCC3CC3)n2)s1
4.48%

More entries:
Return Percent Effect for the following compound: CN(C)S(=O)(=O)c1ccc(OCCNCCn2cccn2)cc1
-6.56%

Return Percent Effect for the following compound: CC(=O)N1CCOCC2(CCN(Cc3ccc(C)s3)CC2)C1
0.408%

Return Percent Effect for the following compound: CSc1ccc(NC(=O)Nc2ccc3c(c2)N(S(C)(=O)=O)CC3)cc1
-2.32%

Return Percent Effect for the following compound: Cc1ccc(CC(=O)N2CC[C@@H]3CN(CCN(C)C)CCO[C@@H]3C2)cc1
6.89%
